Listed here are compounds together with their documented Dmax.
studyTarget: CCDC6-RET (Homo sapiens, UniProt P07949+Q16204+Q96SW2)
Construct: CCDC6 (natural N-terminal fusion partner, UniProt Q16204); endogenous in cells; host or cells: TPC-1 (parental, papillary thyroid carcinoma)
Sequence (Q16204+P07949 fused): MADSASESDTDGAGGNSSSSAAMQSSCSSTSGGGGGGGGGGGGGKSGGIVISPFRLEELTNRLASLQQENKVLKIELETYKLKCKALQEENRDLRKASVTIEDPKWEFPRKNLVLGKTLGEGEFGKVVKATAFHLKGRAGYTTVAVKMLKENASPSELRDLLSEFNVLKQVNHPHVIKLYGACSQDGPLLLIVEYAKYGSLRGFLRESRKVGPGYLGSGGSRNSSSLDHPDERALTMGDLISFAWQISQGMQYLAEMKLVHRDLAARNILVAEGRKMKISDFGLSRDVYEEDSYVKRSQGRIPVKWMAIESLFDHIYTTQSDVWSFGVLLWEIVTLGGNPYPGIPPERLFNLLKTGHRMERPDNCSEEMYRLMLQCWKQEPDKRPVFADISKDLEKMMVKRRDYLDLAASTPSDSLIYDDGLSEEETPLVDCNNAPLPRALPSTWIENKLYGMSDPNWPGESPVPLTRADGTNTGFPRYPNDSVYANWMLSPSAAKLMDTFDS
Sequence (Q96SW2 whole entry, the tested form may be a part): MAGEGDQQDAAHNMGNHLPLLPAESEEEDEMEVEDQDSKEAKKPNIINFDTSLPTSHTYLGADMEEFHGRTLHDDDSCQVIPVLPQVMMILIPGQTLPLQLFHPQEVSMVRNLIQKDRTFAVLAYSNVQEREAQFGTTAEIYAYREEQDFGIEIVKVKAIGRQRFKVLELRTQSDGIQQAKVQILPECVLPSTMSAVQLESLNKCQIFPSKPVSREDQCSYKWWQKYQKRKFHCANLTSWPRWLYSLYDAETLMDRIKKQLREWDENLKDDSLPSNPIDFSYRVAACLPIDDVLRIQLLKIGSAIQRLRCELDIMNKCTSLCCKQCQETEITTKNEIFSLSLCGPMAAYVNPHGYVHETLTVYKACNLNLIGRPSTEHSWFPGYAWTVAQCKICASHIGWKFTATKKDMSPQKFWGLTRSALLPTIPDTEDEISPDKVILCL
Sequence (Q16531 whole entry partner, the tested form may be a part): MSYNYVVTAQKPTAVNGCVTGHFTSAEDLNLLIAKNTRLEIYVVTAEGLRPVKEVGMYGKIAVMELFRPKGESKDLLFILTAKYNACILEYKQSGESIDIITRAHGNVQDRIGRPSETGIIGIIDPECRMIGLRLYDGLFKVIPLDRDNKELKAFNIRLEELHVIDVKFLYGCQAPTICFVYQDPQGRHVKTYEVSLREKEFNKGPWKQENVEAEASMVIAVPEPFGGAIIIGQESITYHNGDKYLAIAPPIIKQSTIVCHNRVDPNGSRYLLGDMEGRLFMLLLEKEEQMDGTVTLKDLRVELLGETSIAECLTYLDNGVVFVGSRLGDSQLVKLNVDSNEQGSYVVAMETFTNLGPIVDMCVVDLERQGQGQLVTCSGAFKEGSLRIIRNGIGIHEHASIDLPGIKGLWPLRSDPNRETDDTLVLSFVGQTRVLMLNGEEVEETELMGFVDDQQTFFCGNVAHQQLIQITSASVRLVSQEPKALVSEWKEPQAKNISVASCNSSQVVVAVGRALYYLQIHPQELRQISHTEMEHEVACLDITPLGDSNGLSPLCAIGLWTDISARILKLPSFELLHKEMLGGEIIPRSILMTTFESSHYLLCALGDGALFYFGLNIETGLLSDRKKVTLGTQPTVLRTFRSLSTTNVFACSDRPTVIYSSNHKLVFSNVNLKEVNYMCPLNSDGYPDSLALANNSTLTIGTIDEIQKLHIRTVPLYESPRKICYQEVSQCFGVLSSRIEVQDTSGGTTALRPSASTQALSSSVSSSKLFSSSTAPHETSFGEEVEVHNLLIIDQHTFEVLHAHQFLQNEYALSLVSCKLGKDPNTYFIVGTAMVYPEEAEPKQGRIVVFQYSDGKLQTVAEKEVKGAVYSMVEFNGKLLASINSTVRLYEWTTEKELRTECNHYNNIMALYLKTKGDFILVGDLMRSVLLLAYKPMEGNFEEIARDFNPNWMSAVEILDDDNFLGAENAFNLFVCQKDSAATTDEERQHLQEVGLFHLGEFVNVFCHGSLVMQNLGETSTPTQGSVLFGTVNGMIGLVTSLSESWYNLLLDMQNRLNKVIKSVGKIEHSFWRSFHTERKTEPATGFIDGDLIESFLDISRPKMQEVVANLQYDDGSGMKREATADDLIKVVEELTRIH
assayProtocol: Cellular RET degradation, AlphaLISA, TPC-1 cell line
Assay type: cell-based
protocolConditions: TPC1, human, 24 h, read-out: Cell Density TPC-1/CCDC6-RET Ymax %
Method: Cellular RET degradation compound potency was determined using the bead-based luminescent amplification assay-AlphaLISA Surefire Ultra Detection Kit (Perkin-Elmer). […] Donor bead addition was performed in the dark and incubated for >1 hr before AlphaLISA luminescence was measured on an Envision plate reader with an Alphascreen aperture at RT (excitation 680 nm, emission 615 nm). RET protein abundance (and therefore degradation) directly corresponds to luminescence intensity. […]

CCOc1cc(-c2ccc(N3CCC(CN4CCN(C(=O)CCCCCCNc5ccc(C6CCC(=O)NC6=O)cc5)CC4)(NC(=O)c4cc(F)ccc4F)CC3)nc2)c2c(C#N)cnn2c1 (centres unmarked) [Example 20] :: > 90%
CCOc1cc(-c2ccc(N3CCC(CN4CCN(C5CN(C(=O)c6ccc7c(c6)CN(C6CCC(=O)NC6=O)C7=O)C5)CC4)(NC(=O)c4cc(F)ccc4F)CC3)nc2)c2c(C#N)cnn2c1 (centres unmarked) [Example 63] :: 60 to 90%
CCOc1cc(-c2ccc(N3CCC(CN4CCN(C(=O)CCCCCCN5CCN(c6ccc7c(c6)CN(C6CCC(=O)NC6=O)C7=O)CC5)CC4)CC3)nc2)c2c(C#N)cnn2c1 (centres unmarked) [Example 125] :: > 90%
CCOc1cc(-c2ccc(N3CCC(CN4CCC5(CC4)CCN(C(=O)CCN4CCN(c6ccc7c(c6)CN(C6CCC(=O)NC6=O)C7=O)CC4)CC5)(NC(=O)c4cc(F)ccc4F)CC3)nc2)c2c(C#N)cnn2c1 (centres unmarked) [Example 87] :: > 90%

Now, please, on to the next compound.
*Q* Entry under review: CCOc1cc(-c2ccc(N3CCC(Cc4ccccc4)(NC(=O)N4CCN(C(=O)CCN5CCC(c6ccc7c(c6)C(=O)N(C6CCC(=O)NC6=O)C7)CC5)CC4)CC3)nc2)c2c(C#N)cnn2c1 (centres unmarked) [Example 51] . Reported Dmax?
*A* 60 to 90%

* * *

studyTarget: CCDC6-RET (Homo sapiens, UniProt P07949+Q16204+Q96SW2)
Construct: CCDC6 (natural N-terminal fusion partner, UniProt Q16204); endogenous in cells; host or cells: TPC-1 (parental, papillary thyroid carcinoma)
assayProtocol: Cellular RET degradation, AlphaLISA, TPC-1 cell line
Format: cell-based
protocolConditions: read-out: Cell Density TPC-1/CCDC6-RET DC50; half-maximal degradation concentration; TPC-1 (CCDC6-RET), 24 hrs
Overview of reported DC50 across a group of molecules:

*Q* What value of DC50 on CCDC6-RET (Homo sapiens, UniProt P07949+Q16204+Q96SW2) does `CCOc1cc(-c2ccc(N3CCC(CN4CCN(C(=O)CCOCCNc5ccc6c(N7CCC(=O)NC7=O)nn(C)c6c5)CC4)(NC(=O)c4cc(F)ccc4F)CC3)nc2)c2c(C#N)cnn2c1` have?
*A* 2 to 10 nM

*Q* Then what about the molecule CCOc1cc(-c2ccc(N3CCC(NC(=O)c4cc(F)ccc4F)(C(=O)NCCN4CCC(c5ccc6c(c5)C(=O)N(C5CCC(=O)NC5=O)C6)CC4)CC3)nc2)c2c(C#N)cnn2c1 (stereo not shown) ?
*A* < 2 nM

*Q* Also CCOc1cc(-c2ccc(N3CCC(CN(C(=O)CCCCN4CCN(c5ccc6c(c5)CN(C5CCC(=O)NC5=O)C6=O)CC4)C(C)C)(NC(=O)c4cc(F)ccc4F)CC3)nc2)c2c(C#N)cnn2c1 (stereo not shown) ?
*A* 2 to 10 nM

*Q* Quick one: CCOc1cc(-c2ccc(N3CCC(CN4CCN(C(=O)C5CC6(CC(C(=O)Nc7ccc8c(N9CCC(=O)NC9=O)nn(C)c8c7)C6)C5)CC4)(NC(=O)c4cc(F)ccc4F)CC3)nc2)c2c(C#N)cnn2c1 (stereo not shown)
*A* < 2 nM

*Q* Same again, this time with CCOc1cc(-c2ccc(N3CCC(CN4CCN(C(=O)CCCCCCN5CCC(c6ccc7c(c6)C(=O)N(C6CCC(=O)NC6=O)C7)CC5)CC4)(NC(=O)c4cc(F)ccc4F)CC3)nc2)c2c(C#N)cnn2c1 (stereo not shown)
*A* 2 to 10 nM

*Q* Then what about the molecule CCOc1cc(-c2ccc(N3CCC(CN4CCN(CCOCCC(=O)N5CCN(c6ccc7c(c6)CN(C6CCC(=O)NC6=O)C7=O)CC5)CC4)(NC(=O)c4cc(F)ccc4F)CC3)nc2)c2c(C#N)cnn2c1 (stereo not shown) ?
*A* 2 to 10 nM

*Q* Next record, please: CCOc1cc(-c2ccc(N3CCC(Cc4ccccc4)(NC(=O)N4CCC(CN5CCC(c6ccc7c(c6)C(=O)N(C6CCC(=O)NC6=O)C7)CC5)CC4)CC3)nc2)c2c(C#N)cnn2c1 (stereo not shown)
*A* 2 to 10 nM

*Q* Try CCOc1cc(-c2ccc(N3CCC(CN4CCN(CC5CCN(C(=O)c6ccc7c(c6)C(=O)N(C6CCC(=O)NC6=O)C7)CC5)CC4)(NC(=O)c4cc(F)ccc4F)CC3)nc2)c2c(C#N)cnn2c1 (stereo not shown) next.
*A* 2 to 10 nM

*Q* Param item: CCOc1cc(-c2ccc(N3CCC(CN4CCN(CCC(=O)N5CCC(c6ccc7c(c6)C(=O)N(C6CCC(=O)NC6=O)C7=O)CC5)CC4)(NC(=O)c4cc(F)ccc4F)CC3)nc2)c2c(C#N)cnn2c1 (stereo not shown)
*A* 2 to 10 nM

*Q* Field entry: CCOc1cc(-c2ccc(N3CCC(C)(CN4CCN(C(=O)CCN5CCC(c6ccc7c(c6)C(=O)N(C6CCC(=O)NC6=O)C7)CC5)CC4)CC3)nc2)c2c(C#N)cnn2c1 (stereo not shown)
*A* 10 to 100 nM

*Q* Entry CCOc1cc(-c2ccc(N3CCC(Cc4ccccc4)(NC(=O)C4CCN(C(=O)CCN5CCC(c6ccc7c(c6)C(=O)N(C6CCC(=O)NC6=O)C7)CC5)CC4)CC3)nc2)c2c(C#N)cnn2c1 (stereo not shown) please
*A* 2 to 10 nM

*Q* Entry CCOc1cc(-c2ccc(N3CCC(CN4CCC5(CC4)CCN(C(=O)c4ccc6c(c4)C(=O)N(C4CCC(=O)NC4=O)C6)CC5)(NC(=O)c4cc(F)ccc4F)CC3)nc2)c2c(C#N)cnn2c1 (stereo not shown) please
*A* 10 to 100 nM

*Q* Let us now turn to CCOc1cc(-c2ccc(N3CCC(CN4CCN(CC5CCN(C(=O)Cc6ccc7c(c6)CN(C6CCC(=O)NC6=O)C7=O)CC5)CC4)(NC(=O)c4cc(F)ccc4F)CC3)nc2)c2c(C#N)cnn2c1 (stereo not shown)
*A* 2 to 10 nM

*Q* Now consider CCOc1cc(-c2ccc(N3CCC(NC(=O)c4cc(F)ccc4F)(C(=O)NCCCCCCN4CCC(c5ccc6c(c5)CN(C5CCC(=O)NC5=O)C6=O)CC4)CC3)nc2)c2c(C#N)cnn2c1 (stereo not shown) .
*A* 2 to 10 nM

*Q* Item: CCOc1cc(-c2ccc(N3CCC(CN4CCN(C(=O)C5CC6(C5)CC(N5CCC(c7ccc8c(c7)CN(C7CCC(=O)NC7=O)C8=O)CC5)C6)CC4)(NC(=O)c4cc(F)ccc4F)CC3)nc2)c2c(C#N)cnn2c1 (stereo not shown)
*A* 2 to 10 nM

*Q* Follow-up item: CCOc1cc(-c2ccc(N3CCC(NC(=O)c4cc(F)ccc4F)(C(=O)NCCCCCCN4CCN(c5ccc6c(c5)C(=O)N(C5CCC(=O)NC5=O)C6)CC4)CC3)nc2)c2c(C#N)cnn2c1 (stereo not shown)
*A* 2 to 10 nM

*Q* Check CCOc1cc(-c2ccc(N3CCC(CN4CCN(C(=O)CCCCCCCCNc5ccc(C6CCC(=O)NC6=O)cc5)CC4)(NC(=O)c4cc(F)ccc4F)CC3)nc2)c2c(C#N)cnn2c1 (stereo not shown) too.
*A* 10 to 100 nM

*Q* How about `CCOc1cc(-c2ccc(N3CCC(CN4CCN(C5CN(C(=O)c6ccc7c(N8CCC(=O)NC8=O)nn(C)c7c6)C5)CC4)(NC(=O)c4cc(F)ccc4F)CC3)nc2)c2c(C#N)cnn2c1` ?
*A* < 2 nM

*Q* And CCOc1cc(-c2ccc(N3CCC(COCCN4CCN(C(=O)CCN5CCN(c6ccc7c(c6)CN(C6CCC(=O)NC6=O)C7=O)CC5)CC4)(NC(=O)c4cc(F)ccc4F)CC3)nc2)c2c(C#N)cnn2c1 (stereo not shown) ?
*A* 10 to 100 nM

* * *

Recorded DC50 by entry
studyTarget: CCDC6-RET (Homo sapiens, UniProt P07949+Q16204+Q96SW2)
Construct: CCDC6 (natural N-terminal fusion partner, UniProt Q16204); endogenous in cells; host or cells: TPC-1 (parental, papillary thyroid carcinoma)
assayProtocol: Cellular RET degradation, AlphaLISA, TPC-1 cell line
Type: cell-based
protocolConditions: read-out: Cell Density TPC-1/CCDC6-RET DC50; half-maximal degradation concentration; TPC-1 (CCDC6-RET), 24 hrs

CCOc1cc(-c2ccc(N3CCC(CN4CCN(C(=O)CCCCN5CCC(c6ccc7c(c6)C(=O)N(C6CCC(=O)NC6=O)C7)CC5)CC4)(NC(=O)c4cc(F)ccc4F)CC3)nc2)c2c(C#N)cnn2c1 (stereo not shown) :: < 2 nM

*Q* Item `CCOc1cc(-c2ccc(N3CCC(CN4CCN(C(=O)CCCCN5CCN(c6ccc7c(N8CCC(=O)NC8=O)nn(C)c7c6)CC5)CC4)(NC(=O)c4cc(F)ccc4F)CC3)nc2)c2c(C#N)cnn2c1` has what recorded DC50?
*A* 2 to 10 nM

*Q* Next record, please: CCOc1cc(-c2ccc(N3CCC(NC(=O)c4cc(F)ccc4F)(C(=O)NCCCCCCN4CCN(c5ccc6c(c5)CN(C5CCC(=O)NC5=O)C6=O)CC4)CC3)nc2)c2c(C#N)cnn2c1 (stereo not shown)
*A* < 2 nM
